# System: Staphylococcus aureus
# Procedure Summary: Antibacterial activity against methicillin-resistant Staphylococcus aureus clinical isolates assessed as resistant isolates by EUCAST method
# Type: functional
# maps each entry to its Activity
Measured Endpoint: Activity

1. CN(C)[C@@H]1C(O)=C(C(N)=O)C(=O)[C@@]2(O)C(O)=C3C(=O)c4c(O)cccc4[C@@](C)(O)[C@H]3C[C@@H]12    19.9%
2. CC[C@H]1OC(=O)[C@H](C)[C@@H](O[C@H]2C[C@@](C)(OC)[C@@H](O)[C@H](C)O2)[C@H](C)[C@@H](O[C@@H]2O[C@H](C)C[C@H](N(C)C)[C@H]2O)[C@](C)(O)C[C@@H](C)C(=O)[C@H](C)[C@@H](O)[C@]1(C)O    85.6%
3. CN[C@H](CC(C)C)C(=O)N[C@H]1C(=O)N[C@@H](CC(N)=O)C(=O)N[C@H]2C(=O)N[C@H]3C(=O)N[C@H](C(=O)N[C@H](C(=O)O)c4cc(O)cc(O)c4-c4cc3ccc4O)[C@H](O)c3ccc(c(Cl)c3)Oc3cc2cc(c3O[C@@H]2O[C@H](CO)[C@@H](O)[C@H](O)[C@H]2O[C@H]2C[C@](C)(N)[C@H](O)[C@H](C)O2)Oc2ccc(cc2Cl)[C@H]1O    0.1%

###

# System: Staphylococcus aureus
# Procedure Summary: Antibacterial activity against methicillin-resistant Staphylococcus aureus clinical isolates by CLSi method
# Assay type: functional
Entries annotated with measured MIC50
Measured Endpoint: MIC50 (µg/mL)

1. CCCCCCCCCCNCCN[C@@]1(C)C[C@H](O[C@H]2[C@H](Oc3c4cc5cc3Oc3ccc(cc3Cl)[C@@H](O)[C@@H](NC(=O)[C@@H](CC(C)C)NC)C(=O)N[C@@H](CC(N)=O)C(=O)N[C@H]5C(=O)N[C@H]3C(=O)N[C@H](C(=O)N[C@H](C(=O)O)c5cc(O)c(CNCP(=O)(O)O)c(O)c5-c5cc3ccc5O)[C@H](O)c3ccc(c(Cl)c3)O4)O[C@H](CO)[C@@H](O)[C@@H]2O)O[C@@H](C)[C@H]1O    0.12
2. CCCCCCCCCC(=O)N[C@@H](Cc1c[nH]c2ccccc12)C(=O)N[C@H](CC(N)=O)C(=O)N[C@@H](CC(=O)O)C(=O)N[C@@H]1C(=O)NCC(=O)N[C@@H](CCCN)C(=O)N[C@@H](CC(=O)O)C(=O)N[C@H](C)C(=O)N[C@@H](CC(=O)O)C(=O)NCC(=O)N[C@H](CO)C(=O)N[C@@H]([C@H](C)CC(=O)O)C(=O)N[C@@H](CC(=O)c2ccccc2N)C(=O)O[C@@H]1C    0.25
3. CN[C@H](CC(C)C)C(=O)N[C@H]1C(=O)N[C@@H](CC(N)=O)C(=O)N[C@H]2C(=O)N[C@H]3C(=O)N[C@H](C(=O)N[C@H](C(=O)O)c4cc(O)cc(O)c4-c4cc3ccc4O)[C@H](O)c3ccc(c(Cl)c3)Oc3cc2cc(c3O[C@@H]2O[C@H](CO)[C@@H](O)[C@H](O)[C@H]2O[C@H]2C[C@](C)(N)[C@H](O)[C@H](C)O2)Oc2ccc(cc2Cl)[C@H]1O    1
4. CC(=O)NC[C@H]1CN(c2ccc(N3CCOCC3)c(F)c2)C(=O)O1    1

###

Entries and their measured Activity follow.
# Tested on: Staphylococcus aureus
# Procedure Summary: Antibacterial activity against methicillin-resistant Staphylococcus aureus clinical isolates assessed as resistant isolates by EUCAST method
# Format: functional
Measured Endpoint: Activity (%)

1. C[C@H]1COc2c(N3CCN(C)CC3)c(F)cc3c(=O)c(C(=O)O)cn1c23.C[C@H]1COc2c(N3CCN(C)CC3)c(F)cc3c(=O)c(C(=O)O)cn1c23.O [LEVOFLOXACIN]    77.9
2. CCCCCCCCCC(=O)N[C@@H](Cc1c[nH]c2ccccc12)C(=O)N[C@H](CC(N)=O)C(=O)N[C@@H](CC(=O)O)C(=O)N[C@@H]1C(=O)NCC(=O)N[C@@H](CCCN)C(=O)N[C@@H](CC(=O)O)C(=O)N[C@H](C)C(=O)N[C@@H](CC(=O)O)C(=O)NCC(=O)N[C@H](CO)C(=O)N[C@@H]([C@H](C)CC(=O)O)C(=O)N[C@@H](CC(=O)c2ccccc2N)C(=O)O[C@@H]1C    0.1
3. CCC[C@@H]1C[C@@H](C(=O)N[C@@H]([C@H]2O[C@H](SC)[C@H](O)[C@@H](O)[C@H]2O)[C@H](C)Cl)N(C)C1 [CLINDAMYCIN]    45.3
